B1: E3 ubiquitin-protein ligase TRIM36, residues 208 to 252; numbered along this chain, Q9NQ86 (parent)
chain: KILMCPEHETERINMYCELCRRPVCHLCKLGGNHANHRVTTMSSA

Variants of: B1
experimental-protocol: abundance fitness (aPCA) (normalised: wild type 0, dead -1); higher = more abundant; growth selection in yeast, the domain comes from the species named
measurement-conditions: Homo sapiens
Outcome label depends on abundance fitness relative to -0.05: at/above gives True, below gives False.

variant-string | assigned-category
L19R | True
K29A | True
C20F | False
N14L | True
R22E | True
P23Q | False
A35T | False
K29R | True
H34N | False
C28Y | False
L19G | True
K29N | True
L27N | True
N36D | True
C28D | True
H26P | True
A35K | False
P23I | False
H26Q | True
H26K | False
V24N | False
L19V | True
K29M | False
C17W | False
G32E | True
C25V | False
C20M | False
G31Q | True
C25F | False
A35V | True
K29F | True
L30G | True
C25E | False
C20G | False
L19S | True
L30W | False
L30K | True
C20V | False
C28Q | False
N33Y | False
C17A | False
G32K | False
R21P | False
N36A | True
P23D | True
G32A | True
R22P | False
Y16W | True
A35L | False
P23A | False
V24W | False
M15E | True
C20I | False
A35P | False
K29E | True
R21Y | True
L30C | True
E18L | False
L19H | True
C25W | False
P23H | False
C25R | False
E18W | False
C17Y | False
L27F | False
L30N | True
G32L | False
C17H | False

All values here come from the Human Domainome abundance scans (Beltran et al. 2025).
